Please respond with reported melting point for every item in the list.

Please look at the items below and tell me melting point for each one, in order.
1. CCn1cc(C(=O)O)c(=O)c2cc(F)c(N3CCN(C(=O)OC(OC(=O)C(C)c4ccc(CC(C)C)cc4)C(=O)OC(C)C)CC3)cc21 (stereo not shown)
2. CCCCOC(=O)C(OC(=O)C(C)C)OC(=O)N1CCN(c2cc3c(cc2F)c(=O)c(C(=O)O)cn3CC)CC1 (stereo not shown)
3. CCn1cc(C(=O)O)c(=O)c2cc(F)c(N3CCN(C(=O)OC(OC(=O)c4ccccc4)C(=O)OC(C)C)CC3)cc21 (stereo not shown)
4. CCCCCCCCCCCC(=O)OC(OC(=O)N1CCN(c2cc3c(cc2F)c(=O)c(C(=O)O)cn3CC)CC1)C(=O)OC(C)C (stereo not shown)

Result:
88 to 96.5 °C
151.5 to 160 °C
135 to 143 °C
105.5 to 109.2 °C

---

Please respond with reported MIC vs S. aureus 6538 Gram-positive for every item in the list.
- System: Staphylococcus aureus 6538
- Protocol Notes: High resolution minimum inhibitory concentration (HRMIC) test vs S. aureus 6538
- Type: cell-based
- Stated Conditions: M9GY medium, 96-well microtiter plate, 10^6 CFU/mL, 30° C. for 24 h; first well with no growth
A bare number is not enough; add the unit after it.

Some solved entries appear below for comparison.
The compound identified as CCCCOC(=O)C(OC(=O)C(C)C)OC(=O)N1CCN(c2cc3c(cc2F)c(=O)c(C(=O)O)cn3CC)CC1 (centres unmarked) [Compound 8-1] registered its MIC vs S. aureus 6538 Gram-positive at 0.06 ppm AI

The compound identified as CCn1cc(C(=O)O)c(=O)c2cc(F)c(N3CCN(C(=O)OC(OC(=O)C(C)c4ccc(CC(C)C)cc4)C(=O)OC(C)C)CC3)cc21 (centres unmarked) [Compound 8-4] registered its MIC vs S. aureus 6538 Gram-positive at 0.7 ppm AI

The compound identified as CCn1cc(C(=O)O)c(=O)c2cc(F)c(N3CCN(C(=O)OC(OC(=O)c4ccccc4)C(=O)OC(C)C)CC3)cc21 (centres unmarked) [Compound 8-2] registered its MIC vs S. aureus 6538 Gram-positive at 0.45 ppm AI

Please look at the items below and tell me MIC vs S. aureus 6538 Gram-positive for each one, in order.
1. CCCCCCCCCCCC(=O)OC(OC(=O)N1CCN(c2cc3c(cc2F)c(=O)c(C(=O)O)cn3CC)CC1)C(=O)OC(C)C (centres unmarked) [Compound 8-3]
2. CCn1cc(C(=O)O)c(=O)c2cc(F)c(N3CCNCC3)cc21 [Norfloxacin, reference compound]

Result:
4.5 ppm AI
0.9 ppm AI
